Provenance of the data: patent US9656962B2

Measured EC50, listed per entry.
Molecular target: κ-opioid receptor (Homo sapiens (Human), UniProt P41145)
Assay: κ-opioid receptor [35S]GTPγS functional assay, U-2 OS cells (Table 5)
Assay type: biochemical
Settings: κ GTP
The figure you give is taken to be in nM; do not add the unit.

[
  {
    "COMPOUND": "O=C([C@H]1C[C@]23CCN(CC4CC4)[C@H](Cc4ccc(O)cc42)[C@]3(O)C1)N1CCCCC1",
    "EC50 [nM]": 5.88
  },
  {
    "COMPOUND": "CN(C)C(=O)[C@@H]1C[C@]23CCN(CC4CC4)[C@H](Cc4ccc(O)cc42)[C@]3(O)C1",
    "EC50 [nM]": 23.6
  },
  {
    "COMPOUND": "N[C@@H]1CC23CCN(CC4CC4)[C@H](Cc4ccc(O)cc42)[C@]3(O)C1 (stereo in doubt)",
    "EC50 [nM]": 25.4
  }
]

Shifting focus to the compound that follows.
EC50 reported for this compound O=C(O)[C@@H]1C[C@]23CCN(CC4CC4)[C@H](Cc4ccc(O)cc42)[C@]3(O)C1 : 13.2
